This collection of values is drawn from patent US20140341917A1.

target: T1, human PD-L1 (human, UniProt Q9NZQ7 19-238, limits assumed); assay: Biacore kinetic profile
T1 construct: Protein used in the Biacore assays of 3.1
T1 sequence (Q9NZQ7 19-238 limits assumed): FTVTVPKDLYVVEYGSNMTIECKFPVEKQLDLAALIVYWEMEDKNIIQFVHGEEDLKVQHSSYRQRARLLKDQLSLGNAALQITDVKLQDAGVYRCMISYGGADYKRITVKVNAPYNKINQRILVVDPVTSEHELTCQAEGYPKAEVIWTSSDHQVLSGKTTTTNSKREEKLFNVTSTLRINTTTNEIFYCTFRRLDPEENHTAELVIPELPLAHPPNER
Property measured: Kd
// return the numeric value with its unit appended

Asked: What does the record list as Kd for A09-213-1 (antibody, human IgG1, lambda, V domains shown, 193V read as I93V; also called VH-M31I, M35F, S63T, 193V) VH: EVQLLESGGGLVQPGGSLRLSCAASGFTFSIYMMFWVRQAPGKGLEWVSSIYPSGGITFYADTVKGRFTISRDNSKNTLYLQMNSLRAEDTAVYYCARIKLGTVTTVDYWGQGTLVTVSS VL: QSALTQPASVSGSPGQSITISCTGTSSDVGAYNYVSWYQQHPGKAPKLMIYDVSNRPSGVSNRFSGSKSGNTASLTISGLQAEDEADYYCSSYTSSSTRVFGTGTKVTVLG ?
Given back: 2.51 nM
